System: pLai RLuc reporter virus
Test: microbe, parasite or virus in culture
Format: cell-based, HIV
Conditions: Human immunodeficiency virus 1, 72 h, read-out: Antiviral Serum Shift RLuc CCM, CCM (RPMI media, 10% FBS, 1% P/S), 72-h incubation
property measured: pEC50
Entry type: numeric. Quantity: pEC50, the -log10 of concentration in molar units.

Examples with their reported pEC50 follow.
molecule: C[C@@H]1CC[C@@H](C)N2C[C@H]1n1cc(C(=O)NCc3c(F)cc(F)cc3F)c(=O)c(O)c1C2=O [Example 151-2]
pEC50: 9.36
--
molecule: C[C@]12CC=CCN(C1)C(=O)c1c(O)c(=O)c(C(=O)NCc3c(F)cc(F)cc3F)cn12 [Example 156]
pEC50: 9.73
--
molecule: C[C@@H]1CC[C@H]2C[C@@]23CN1C(=O)c1c(O)c(=O)c(C(=O)NCc2c(F)cc(F)cc2F)cn13 [Example 150]
pEC50: 9.77
--
molecule: C[C@H]1CC[C@H](C)N2C[C@H]1n1cc(C(=O)NCc3c(F)cc(F)cc3F)c(=O)c(O)c1C2=O [Example 186]
pEC50: 9.51
--
molecule: O=C(NCc1ccc(F)c(Cl)c1F)c1cn2c(c(O)c1=O)C(=O)N1C[C@@H]2CCc2ccc(F)cc21 [Example 90-2]
pEC50: 9.44
--
molecule: O=C(NCc1c(F)cc(F)cc1F)c1cn2c(c(O)c1=O)C(=O)N1CC[C@H](F)CC[C@H]2C1 [Example 81-1]
pEC50: 9.33
--
molecule: O=C(NCc1c(F)cc(F)cc1F)c1cn2c(c(O)c1=O)C(=O)N1CCOC[C@H]2C1 [Example 20]
pEC50: 8.74
--
molecule: C[C@H]1CCC[C@@H]2CN1C(=O)c1c(O)c(=O)c(C(=O)NCc3ccc(F)cc3F)cn12 [Example 52-2]
pEC50: 9.42
--
molecule: O=C(NCc1c(F)cc(F)cc1F)c1cn2c(c(O)c1=O)C(=O)N1C[C@H]3CC[C@H](C3)[C@H]2C1 [Example 41-1]
pEC50: 9.47
--
molecule: C[C@H]1OC[C@H](C)N2C[C@H]1n1cc(C(=O)NCc3c(F)cc(F)cc3F)c(=O)c(O)c1C2=O [Example 195]
pEC50: 9.36

Using the record for O=C(NCc1c(F)cc(F)cc1F)c1cn2c(c(O)c1=O)C(=O)N1C[C@@H]2CCCc2ccccc21 [Example 80-1] , report its pEC50.
9.46

Using the record for O=C(NCc1c(F)cc(F)cc1F)c1cn2c(c(O)c1=O)C(=O)N1CCc3cc(F)c(F)cc3[C@H]2C1 (single isomer, unassigned) [Example 110-1] , report its pEC50.
9.49

Using the record for C[C@]1(O)CCCN2C[C@H]1n1cc(C(=O)NCc3ccc(F)cc3F)c(=O)c(O)c1C2=O [Example 14-1] , report its pEC50.
9.10

Using the record for O=C(NCc1ccc(F)c(Cl)c1Cl)c1cn2c(c(O)c1=O)C(=O)N1CCCC[C@H]2C1 [Example 62] , report its pEC50.
9.53

====

Listing of entries alongside the reported pEC50.
Tested on: pLai RLuc reporter virus
Experiment: microbe, parasite or virus in culture
Format: cell-based, HIV
Conditions: Human immunodeficiency virus 1, 72 h, read-out: Antiviral Serum Shift RLuc CCM, CCM (RPMI media, 10% FBS, 1% P/S), 72-h incubation
Entry type: numeric. Quantity: pEC50, the -log10 of concentration in molar units.

Examples with their reported pEC50 follow.
molecule: O=C(NCc1c(F)cc(F)cc1F)c1cn2c(c(O)c1=O)C(=O)N1C[C@H]2CCc2cccc(F)c21
number: 9.69
//
molecule: O=C(NCc1ccc(F)cc1F)c1cn2c(c(O)c1=O)C(=O)N1CCCC(F)(F)[C@@H]2C1
number: 9.60
//
molecule: C[C@@]12Cc3cc(F)c(F)cc3CN(C1)C(=O)c1c(O)c(=O)c(C(=O)NCc3c(F)cc(F)cc3F)cn12 (single isomer, unassigned)
number: 9.21

Using the record for `C[C@@]1(F)CCCN2C[C@@H]1n1cc(C(=O)NCc3c(F)cc(F)cc3F)c(=O)c(O)c1C2=O` , report its pEC50.
9.85

Using the record for `O=C(NCc1c(F)cc(F)cc1F)c1cn2c(c(O)c1=O)C(=O)N1CCC[C@H]3C[C@@]32C1` , report its pEC50.
9.53

Using the record for `O=C(NCc1c(F)cc(F)cc1F)c1cn2c(c(O)c1=O)C(=O)N1C[C@@H]2CCc2ccc(F)cc21` , report its pEC50.
9.58

Using the record for `C[C@@]1(O)CCCN2C[C@@H]1n1cc(C(=O)NCc3ccc(F)cc3F)c(=O)c(O)c1C2=O` , report its pEC50.
9.25

====

System: pLai RLuc reporter virus
Assay: microbe, parasite or virus in culture
Type: cell-based, HIV
Details: Human immunodeficiency virus 1, 72 h, read-out: Antiviral Serum Shift RLuc CCM, CCM (RPMI media, 10% FBS, 1% P/S), 72-h incubation
property measured: pEC50
Entry type: numeric. Quantity: pEC50, the -log10 of concentration in molar units.

molecule: O=C(NCc1c(F)cc(F)cc1F)c1cn2c(c(O)c1=O)C(=O)N1C[C@@H](O)CC[C@H]2C1 (single isomer, unassigned)
pEC50: 7.71
//
molecule: O=C(NCc1c(F)cc(F)cc1F)c1cn2c(c(O)c1=O)C(=O)N1C[C@H]2CCc2cc(Cl)ccc21
pEC50: 9.45
//
molecule: O=C(NCc1c(F)cc(F)cc1F)c1cn2c(c(O)c1=O)C(=O)N1Cc3ccc(Cl)cc3C[C@H]2C1 (single isomer, unassigned)
pEC50: 9.49
//
molecule: O=C(NCc1ccc(F)cc1F)c1cn2c(c(O)c1=O)C(=O)N1CCCC[C@H]2C1 (single isomer, unassigned)
pEC50: 9.55
//
molecule: Cn1cc2c(n1)CC[C@H]1CN2C(=O)c2c(O)c(=O)c(C(=O)NCc3c(F)cc(F)cc3F)cn21
pEC50: 8.98
//
molecule: C[C@]12CN(CCc3cc(F)c(F)cc31)C(=O)c1c(O)c(=O)c(C(=O)NCc3c(F)cc(F)cc3F)cn12 (single isomer, unassigned)
pEC50: 7.85

Using the record for O=C(NCc1c(F)cc(F)cc1F)c1cn2c(c(O)c1=O)C(=O)N1CCN(C(F)(F)F)CC2C1 (stereo not drawn) , report its pEC50.
7.53

Using the record for `O=C(NCc1c(F)cc(F)cc1F)c1cn2c(c(O)c1=O)C(=O)N1CCC[C@@H](O)C[C@H]2C1` , report its pEC50.
8.68

Using the record for `O=C(NCc1c(F)cc(F)c(Cl)c1F)c1cn2c(c(O)c1=O)C(=O)N1CCCC[C@H]2C1` , report its pEC50.
9.31

====

Listing of entries alongside the reported CC50 at 5 days.
Experiment: Cytotoxicity assay in MT-4 cells
Format: cell-based, human
Conditions: human, uninfected MT-4 cells, 5 days incubation; read-out: CC50

Examples with their reported CC50 at 5 days follow.
compound: O=C(NCc1ccc(F)c(Cl)c1F)c1cn2c(c(O)c1=O)C(=O)N1C[C@@H]2CCc2ccc(F)cc21
CC50 at 5 days: > 20.8 µM
--
compound: O=C(NCc1ccc(F)cc1F)c1cn2c(c(O)c1=O)C(=O)N1CCCC(O)C2C1 (stereo not shown)
CC50 at 5 days: > 50 µM
--
compound: O=C(NCc1ccc(F)cc1F)c1cn2c(c(O)c1=O)C(=O)N1CCOC[C@@H]2C1
CC50 at 5 days: > 50 µM
--
compound: O=C(NCc1ccc(F)c(Cl)c1F)c1cn2c(c(O)c1=O)C(=O)N1C[C@H]2CCc2ccc(F)cc21
CC50 at 5 days: > 32.6 µM
--
compound: C[C@]1(O)CCN2C[C@H](C1)n1cc(C(=O)NCc3c(F)cc(F)cc3F)c(=O)c(O)c1C2=O
CC50 at 5 days: > 50 µM
--
compound: O=C(NCc1ccc(F)cc1F)c1cn2c(c(O)c1=O)C(=O)N1C[C@H]2COc2cc(F)c(F)cc21
CC50 at 5 days: > 39.3 µM

// next item, CC50 at 5 days requested
Using the record for O=C(NCc1ccc(F)cc1F)c1cn2c(c(O)c1=O)C(=O)N1Cc3ccc(Cl)cc3C[C@H]2C1 (single isomer, unassigned) , report its CC50 at 5 days.
> 47.2 µM

====

Test: Cytotoxicity assay in MT-4 cells
Type: cell-based, human
Settings: human, uninfected MT-4 cells, 5 days incubation; read-out: CC50
property measured: CC50 at 5 days (µM)
All answers are understood in µM, so give the number only.

Using the record for O=C(NCc1c(F)cc(F)cc1F)c1cn2c(c(O)c1=O)C(=O)N1CCC[C@H](Cl)[C@H]2C1 (single isomer, unassigned) [Example 72-1] , report its CC50 at 5 days.
9.99

Using the record for O=C(NCc1c(F)cc(F)cc1F)c1cn2c(c(O)c1=O)C(=O)N1CCc3ccccc3[C@@H]2C1 (single isomer, unassigned) [Example 63-2] , report its CC50 at 5 days.
14.3

Using the record for O=C(NCc1c(F)cc(F)cc1F)c1cn2c(c(O)c1=O)C(=O)N1C[C@H]2CCc2cc(Cl)ccc21 [Example 48-2] , report its CC50 at 5 days.
17.6
